Reference source for all entries: PubChem BioAssay (NCATS)

System: Zika virus NS2B-NS3 protease
Experiment: Primary screen GU AMC qHTS for Zika virus inhibitors (AID 1347154); further: nearly all actives have a fitted effect of over 70% in size
Conditions: Zika NS2B-NS3 unlinked protease, AMC fluorogenic substrate; series mostly up to 54.1 µM
Records with an inconclusive call do not appear. Calls of active or inactive are those of the source. The call rests on the fitted dose curve; in most records, active means well fitted inhibition curve with a large enough effect; inconclusive means small, poorly fitted or top-dose-only effect; inactive means flat fitted curve, though single readings scatter.
Respond only with the outcome that fits, drawn from class 1 (active), class 0 (inactive)

input: GET /call?item= `CCOC(=O)n1ccn(C)c1=S` returns the recorded outcome of this test.
output: class 0

input: GET /call?item= `Cc1c(C(C)C)c(=O)n(-c2ccccc2)n1C` returns the recorded outcome of this test.
output: class 0

input: GET /call?item= `CCCSS/C(CCO)=C(\C)N(C=O)Cc1cnc(C)nc1N` returns the recorded outcome of this test.
output: class 0

input: GET /call?item= `C[C@]12CC[C@H]3[C@@H](CCC4=CC(=O)CC[C@@]43C)[C@@H]1CC[C@@H]2C(=O)CO` returns the recorded outcome of this test.
output: class 0

input: GET /call?item= `CC(=O)c1ccc2c(c1)N(CCCN1CCC(CCO)CC1)c1ccccc1S2` returns the recorded outcome of this test.
output: class 0

input: GET /call?item= `CCN(CC)CCNC(=O)COc1ccc(Cl)cc1` returns the recorded outcome of this test.
output: class 0

input: GET /call?item= `COC(=O)[C@@H]1CC2=CC(=O)CC[C@]2(C)[C@@]23O[C@@H]2C[C@@]2(C)[C@@H](CC[C@@]24CCC(=O)O4)[C@H]13` returns the recorded outcome of this test.
output: class 0

input: GET /call?item= `CN1CCN(CCCN2c3ccccc3Sc3ccc(S(=O)(=O)N(C)C)cc32)CC1` returns the recorded outcome of this test.
output: class 0

input: GET /call?item= O=C(CCN1CCC(c2ccccc2)C1)c1ccc2c(c1)OCCO2 (centres undefined) returns the recorded outcome of this test.
output: class 0

input: GET /call?item= `CC1(C)O[C@@H]2C[C@H]3[C@@H]4CCC5=CC(=O)CC[C@]5(C)[C@@]4(F)[C@@H](O)C[C@]3(C)[C@]2(C(=O)CCl)O1` returns the recorded outcome of this test.
output: class 0

input: GET /call?item= Cc1c(F)c(N2CCNC(C)C2)cc2c1c(=O)c(C(=O)O)cn2C1CC1 (centres undefined) returns the recorded outcome of this test.
output: class 0

input: GET /call?item= `Cc1c(C)n(Cc2ccccc2)c2ccc(C(=O)OCCN(C)C)cc12` returns the recorded outcome of this test.
output: class 0

input: GET /call?item= `OC(CCN1CCCCC1)(c1ccccc1)c1ccccc1` returns the recorded outcome of this test.
output: class 0

input: GET /call?item= `O=C1OCCN1/N=C/c1ccc([N+](=O)[O-])o1` returns the recorded outcome of this test.
output: class 0

input: GET /call?item= `CCOC(=O)[C@H](CCc1ccccc1)N[C@@H](C)C(=O)N1Cc2ccccc2C[C@H]1C(=O)O` returns the recorded outcome of this test.
output: class 0

input: GET /call?item= `Cc1cc(O)c(C(C)C)cc1Cl` returns the recorded outcome of this test.
output: class 0

input: GET /call?item= `NCCC(O)(P(=O)(O)O)P(=O)(O)O` returns the recorded outcome of this test.
output: class 0

input: GET /call?item= `CN(C)CC/C=C1/c2ccccc2COc2ccc(CC(=O)O)cc21` returns the recorded outcome of this test.
output: class 0

input: GET /call?item= `C[C@]12CC[C@@H]3c4ccc(O)cc4CC[C@H]3[C@@H]1C[C@@H](O)[C@@H]2O` returns the recorded outcome of this test.
output: class 0

input: GET /call?item= `Cc1ccc(O)c2ncccc12` returns the recorded outcome of this test.
output: class 0

input: GET /call?item= `O=S1(=O)c2cccc3cccc(c23)N1CCCN1CCN(c2ccc(F)cc2)CC1` returns the recorded outcome of this test.
output: class 0

input: GET /call?item= `C[C@]12CC[C@@H]3c4ccc(O)cc4CC[C@H]3[C@@H]1CC[C@@H]2O` returns the recorded outcome of this test.
output: class 0

input: GET /call?item= `CCOc1ccc2nc3cc(N)ccc3c(N)c2c1` returns the recorded outcome of this test.
output: class 1

input: GET /call?item= `CN1CCC(=C2c3ccccc3Sc3ccccc32)CC1` returns the recorded outcome of this test.
output: class 0

input: GET /call?item= CC(Cc1cccc(C(F)(F)F)c1)NCCOC(=O)c1ccccc1 (centres undefined) returns the recorded outcome of this test.
output: class 0

input: GET /call?item= `CC(C)NC[C@@H](O)COc1cccc2ccccc12` returns the recorded outcome of this test.
output: class 0

input: GET /call?item= `CCCCOc1ccc(OCCCN2CCOCC2)cc1` returns the recorded outcome of this test.
output: class 0

input: GET /call?item= `Oc1ccc(Cl)c2cccnc12` returns the recorded outcome of this test.
output: class 0

input: GET /call?item= `CCCCCCCCCCCCCCCCOP(=O)([O-])OCC[N+](C)(C)C` returns the recorded outcome of this test.
output: class 0

input: GET /call?item= `CC[C@@H](CO)NCCN[C@@H](CC)CO` returns the recorded outcome of this test.
output: class 0

input: GET /call?item= `C[C@@H]1C[C@H]2[C@@H]3CCC4=CC(=O)C=C[C@]4(C)[C@@]3(F)[C@@H](O)C[C@]2(C)[C@H]1C(=O)CO` returns the recorded outcome of this test.
output: class 0

input: GET /call?item= `CC1(C)O[C@@H]2C[C@H]3[C@@H]4C[C@H](F)C5=CC(=O)C=C[C@]5(C)[C@H]4[C@@H](O)C[C@]3(C)[C@]2(C(=O)CO)O1` returns the recorded outcome of this test.
output: class 0

input: GET /call?item= `CC1(C)O[C@@H]2[C@@H](CO[C@@]3(COS(N)(=O)=O)OC(C)(C)O[C@@H]23)O1` returns the recorded outcome of this test.
output: class 0

input: GET /call?item= `O=C(N/N=C/c1ccccc1O)c1ccncc1` returns the recorded outcome of this test.
output: class 0
